- System: motor activity of the rat
- Protocol details: Effects on the motor activity of the rat
- Type: in vivo
- Measurement context: i.p., dose 100 mg/kg, first half hour after administration
Below is a list of entries, each paired with its recorded < % (per cent decrease in motor activity) value.
Answer shape: numeric part, then the unit.

Worked cases, < % (per cent decrease in motor activity) given:
Can you share its < % (per cent decrease in motor activity)? I mean this compound: CCOCCCC(=O)NCc1ccc(C)cc1
54.5%

Also check COCCCC(=O)NCc1ccc(C)cc1
76%

Also check COCCCC(=O)NCc1ccccc1
42%

Also check CCCOCCCC(=O)NCc1ccc(C)cc1
58%

Also check COCCCC(=O)NCc1cccc2ccccc12
75%

Also check COCCCC(=O)NCc1ccc(Cl)cc1
70%

// next entry
Can you share its < % (per cent decrease in motor activity)? I mean this compound: O=C(CCCO)NCc1ccc(Cl)cc1
0%

====

Below is a list of entries, each paired with its recorded < % (per cent decrease in motor activity) value.
- Tested on: motor activity of the rat
- Protocol details: Effects on the motor activity of the rat
- Assay type: in vivo
- Measurement context: i.p., dose 300 mg/kg, first half hour after administration
Answer shape: numeric part, then the unit.

Can you share its < % (per cent decrease in motor activity)? I mean this compound: COc1ccc(CNC(=O)CCCO)cc1
57%

Also check Cc1ccc(CNC(=O)CCCO)cc1
77%

Also check CCCNC(=O)CCCO
82%

Further cases:
Can you share its < % (per cent decrease in motor activity)? I mean this compound: O=C(CCCO)NCc1ccc(Cl)cc1
80%

Also check COc1cc(CNC(=O)CCCO)cc(OC)c1
68%

Also check O=C(CCCO)NCc1cccnc1
72%
